# MEASURED ON: Substance-K receptor (Homo sapiens, UniProt P21452)
# Sequence (P21452 whole entry): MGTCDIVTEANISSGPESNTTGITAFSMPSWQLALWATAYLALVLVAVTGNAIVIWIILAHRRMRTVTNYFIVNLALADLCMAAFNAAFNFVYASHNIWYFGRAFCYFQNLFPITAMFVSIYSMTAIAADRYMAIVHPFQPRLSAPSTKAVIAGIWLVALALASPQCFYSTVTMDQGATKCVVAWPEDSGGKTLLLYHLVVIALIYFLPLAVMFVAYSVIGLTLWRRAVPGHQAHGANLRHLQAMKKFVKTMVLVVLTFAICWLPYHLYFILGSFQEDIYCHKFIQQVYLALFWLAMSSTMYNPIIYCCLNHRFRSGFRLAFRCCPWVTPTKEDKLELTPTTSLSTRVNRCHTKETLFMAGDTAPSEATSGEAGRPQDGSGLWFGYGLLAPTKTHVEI
# ASSAY METHOD TEXT: Compound was evaluated for Kd value against [3H]-SR- 48968 on the Wild-type tachykinin receptor 2
Bridge positions count the residues as written; N and C are the ends. Square brackets hold non-standard residues; d marks the D form. Peptide text beside a SMILES is read from it. * marks the point of attachment. NH(β-GlcNAc) = CC(=O)N[C@@H]1[C@@H](O)[C@H](O)[C@@H](CO)O[C@H]1N*; Dap = NC[C@H](N)C(=O)O
MEASURED PARAMETER: pKd
# pKd: negative log10 of molar concentration; output just the value

# MOLECULE, MEASURED NUMBER
rows = [
    ("O=C1CCC(=O)N[C@@H](Cc2c[nH]c3ccccc23)C(=O)N[C@@H](Cc2ccccc2)C(=O)N[C@H](Cc2ccccc2)CN1", 8.00),
]

*Q* Need pKd, item CC(=O)N[C@@H]1[C@@H](O)[C@H](O)[C@@H](CO)O[C@H]1NC(=O)C[C@@H]1NC(=O)[C@H](CC(C)C)NC(=O)[C@@H]2CNC(=O)C[C@H](NC1=O)C(=O)N[C@@H](Cc1c[nH]c3ccccc13)C(=O)N[C@@H](Cc1ccccc1)C(=O)N2 (cyclo(D(NH(β-GlcNAc))DWF[Dap]L); lactam 2-5)
*A* 8.36
